Listing: MIC of selected compounds
Tested on: Streptococcus pyogenes C 203
Assay: In vitro antibacterial activity, MIC, broth microdilution
Format: cell-based
Conditions: Streptococcus pyogenes, C203; S. pyogenes C 203; MHB + 5% horse serum; 37° C., 18 hours; read-out: minimum inhibiting concentration MIC
API: value field is a number in ng/mL; no unit string.

* CC[C@H]1OC(=O)[C@H](C)[C@@H](O[C@H]2C[C@@](C)(OC)[C@@H](O)[C@H](C)O2)[C@H](C)[C@@H](O[C@@H]2O[C@H](C)C[C@H](N(C)C)[C@H]2O)[C@](C)(O)C[C@@H](C)/C(=N\OCCN(C)CCCCCCN(C)Cc2ccccc2)[C@H](C)[C@@H](O)[C@]1(C)O | 7.8
* CC[C@H]1OC(=O)[C@H](C)[C@@H](O[C@H]2C[C@@](C)(OC)[C@@H](O)[C@H](C)O2)[C@H](C)[C@@H](O[C@@H]2O[C@H](C)C[C@H](N(C)C)[C@H]2O)[C@](C)(O)C[C@@H](C)/C(=N\OCCCCCNCCCCCCNCc2ccccc2)[C@H](C)[C@@H](O)[C@]1(C)O | 31.2
* CC[C@H]1OC(=O)[C@H](C)[C@@H](O[C@H]2C[C@@](C)(OC)[C@@H](O)[C@H](C)O2)[C@H](C)[C@@H](O[C@@H]2O[C@H](C)C[C@H](N(C)C)[C@H]2O)[C@](C)(O)C[C@@H](C)/C(=N\OCCNCCCCCCNCc2ccc(-c3ccccc3)cc2)[C@H](C)[C@@H](O)[C@]1(C)O | 7.8

Q. Fill blank: measured MIC of the compound CC[C@H]1OC(=O)[C@H](C)[C@@H](O[C@H]2C[C@@](C)(OC)[C@@H](O)[C@H](C)O2)[C@H](C)[C@@H](O[C@@H]2O[C@H](C)C[C@H](N(C)C)[C@H]2O)[C@](C)(OC)C[C@@H](C)C(=O)[C@H](C)[C@@H](O)[C@]1(C)O [Clarithromycin, reference compound] is ____.
A. 7.8

Q. Fill blank: measured MIC of the compound "CC[C@H]1OC(=O)[C@H](C)[C@@H](O[C@H]2C[C@@](C)(OC)[C@@H](O)[C@H](C)O2)[C@H](C)[C@@H](O[C@@H]2O[C@H](C)C[C@H](N(C)C)[C@H]2O)[C@](C)(O)C[C@@H](C)/C(=N\OCCNCCCCCCNCc2ccc(Oc3ccccc3)cc2)[C@H](C)[C@@H](O)[C@]1(C)O" is ____.
A. 3.9

Q. Fill blank: measured MIC of the compound "CC[C@H]1OC(=O)[C@H](C)[C@@H](O[C@H]2C[C@@](C)(OC)[C@@H](O)[C@H](C)O2)[C@H](C)[C@@H](O[C@@H]2O[C@H](C)C[C@H](N(C)C)[C@H]2O)[C@](C)(O)C[C@@H](C)/C(=N\OCCNCCCCCCNCc2ccccc2)[C@H](C)[C@@H](O)[C@]1(C)O" is ____.
A. 3.9

Q. Fill blank: measured MIC of the compound "CC[C@H]1OC(=O)[C@H](C)[C@@H](O[C@H]2C[C@@](C)(OC)[C@@H](O)[C@H](C)O2)[C@H](C)[C@@H](O[C@@H]2O[C@H](C)C[C@H](N(C)C)[C@H]2O)[C@](C)(O)C[C@@H](C)/C(=N\OCCNCCCCCCNCc2cccc(C(F)(F)F)c2)[C@H](C)[C@@H](O)[C@]1(C)O" is ____.
A. 15.6

Q. Fill blank: measured MIC of the compound "CC[C@H]1OC(=O)[C@H](C)[C@@H](O[C@H]2C[C@@](C)(OC)[C@@H](O)[C@H](C)O2)[C@H](C)[C@@H](O[C@@H]2O[C@H](C)C[C@H](N(C)C)[C@H]2O)[C@](C)(O)C[C@@H](C)/C(=N\OCCNCCCCCCNCc2ccc([N+](=O)[O-])cc2)[C@H](C)[C@@H](O)[C@]1(C)O" is ____.
A. 1.9

----------
Tested on: Streptococcus pneumoniae BS 3
Experiment: In vitro antibacterial activity, MIC, broth microdilution
Assay type: cell-based
Settings: Streptococcus pneumoniae, BS3; S. pneumoniae BS 3; MHB + 5% horse serum; 37° C., 18 hours; read-out: minimum inhibiting concentration MIC
Assign labels as follows, please: Y for MIC below 20 ng/mL; N for MIC equal to or exceeding 20 ng/mL.

Q. Does CC[C@H]1OC(=O)[C@H](C)[C@@H](O[C@H]2C[C@@](C)(OC)[C@@H](O)[C@H](C)O2)[C@H](C)[C@@H](O[C@@H]2O[C@H](C)C[C@H](N(C)C)[C@H]2O)[C@](C)(OC)C[C@@H](C)C(=O)[C@H](C)[C@@H](O)[C@]1(C)O [Clarithromycin, reference compound] have MIC strictly under 20 ng/mL?
A. Y

----------
Test system: Streptococcus pyogenes C 203
Assay: In vitro antibacterial activity, MIC, broth microdilution
Format: cell-based
Settings: Streptococcus pyogenes, C203; S. pyogenes C 203; MHB + 5% horse serum; 37° C., 18 hours; read-out: minimum inhibiting concentration MIC
measured-metric: MIC (ng/mL)
API: value field is a number in ng/mL; no unit string.

• CC[C@H]1OC(=O)[C@H](C)[C@@H](O[C@H]2C[C@@](C)(OC)[C@@H](O)[C@H](C)O2)[C@H](C)[C@@H](O[C@@H]2O[C@H](C)C[C@H](N(C)C)[C@H]2O)[C@](C)(O)C[C@@H](C)/C(=N\OCCCCCCNCCCCCCNCc2ccccc2)[C@H](C)[C@@H](O)[C@]1(C)O = 15.6

Q. Fill blank: measured MIC of the molecule "CC[C@H]1OC(=O)[C@H](C)[C@@H](O[C@H]2C[C@@](C)(OC)[C@@H](O)[C@H](C)O2)[C@H](C)[C@@H](O[C@@H]2O[C@H](C)C[C@H](N(C)C)[C@H]2O)[C@](C)(O)C[C@@H](C)/C(=N\OCCNCCCCCCNCc2ccc3c(c2)OCO3)[C@H](C)[C@@H](O)[C@]1(C)O" is ____.
A. 7.8

Q. Fill blank: measured MIC of the molecule "CC[C@H]1OC(=O)[C@H](C)[C@@H](O[C@H]2C[C@@](C)(OC)[C@@H](O)[C@H](C)O2)[C@H](C)[C@@H](O[C@@H]2O[C@H](C)C[C@H](N(C)C)[C@H]2O)[C@](C)(O)C[C@@H](C)/C(=N\OCCNCCCCCCNCc2cccc([N+](=O)[O-])c2)[C@H](C)[C@@H](O)[C@]1(C)O" is ____.
A. 3.9

----------
Tested on: Streptococcus pneumoniae BS 4
Assay: In vitro antibacterial activity, MIC, broth microdilution
Type: cell-based
Conditions: Streptococcus pneumoniae, BS4; S. pneumoniae BS 4; MHB + 5% horse serum; 37° C., 18 hours; read-out: minimum inhibiting concentration MIC
Description: a) In vitro antibacterial activity The determination of the minimum inhibiting concentrations (MIC), with respect to Gram-positive and Gram-negative bacteria was carried out through the micromethod of gradual broth dilution in double series [National Committee for Clinical Laboratory Standards, 1990; Methods for dilution antimicrobial susceptibility tests for bacteria that grow aerobically; Approved standards […], Villanova, Pa.], by using Mueller Hinton Broth (MHB) as a culture medium. […]
Listing: MIC of selected molecules
API: value field is a number in µg/mL; no unit string.

Examples from the recorded data:
• CC[C@H]1OC(=O)[C@H](C)[C@@H](O[C@H]2C[C@@](C)(OC)[C@@H](O)[C@H](C)O2)[C@H](C)[C@@H](O[C@@H]2O[C@H](C)C[C@H](N(C)C)[C@H]2O)[C@](C)(O)C[C@@H](C)/C(=N\OCCNCCCCCCNCc2ccccc2O)[C@H](C)[C@@H](O)[C@]1(C)O [Compound 24] = 0.0156
• CC[C@H]1OC(=O)[C@H](C)[C@@H](O[C@H]2C[C@@](C)(OC)[C@@H](O)[C@H](C)O2)[C@H](C)[C@@H](O[C@@H]2O[C@H](C)C[C@H](N(C)C)[C@H]2O)[C@](C)(O)C[C@@H](C)/C(=N\OCCNCCCCCCNCc2ccc([N+](=O)[O-])c(O)c2)[C@H](C)[C@@H](O)[C@]1(C)O [Compound 37] = 0.0312
• CC[C@H]1OC(=O)[C@H](C)[C@@H](O[C@H]2C[C@@](C)(OC)[C@@H](O)[C@H](C)O2)[C@H](C)[C@@H](O[C@@H]2O[C@H](C)C[C@H](N(C)C)[C@H]2O)[C@](C)(O)C[C@@H](C)/C(=N\OCCCCCCNCCCCCNCc2ccccc2)[C@H](C)[C@@H](O)[C@]1(C)O [Compound 8] = 0.5

Q. # value lookup — system Streptococcus pneumoniae BS 4, readout MIC, item CC[C@H]1OC(=O)[C@H](C)[C@@H](O[C@H]2C[C@@](C)(OC)[C@@H](O)[C@H](C)O2)[C@H](C)[C@@H](O[C@@H]2O[C@H](C)C[C@H](N(C)C)[C@H]2O)[C@](C)(O)C[C@@H](C)/C(=N\OCCNCCCCCCNCc2cccc([N+](=O)[O-])c2)[C@H](C)[C@@H](O)[C@]1(C)O [Compound 34]
A. 0.0039
